system tested: HIV-1 RT (Human immunodeficiency virus type 1 group M subtype B, UniProt P03367)
Construct: Reverse transcriptase enzyme from the LAV strain of Human Immunodeficiency Virus (HIV-1) (1) was isolated; made in house; host or cells: E. coli JM109, clone pBRTprtl+ in vector pIBI21 (lac promoter, IPTG induction)
method: Reverse Transcriptase (RT) Assay: inhibition of RNA-dependent DNA polymerase activity
Format: biochemical
recorded conditions: @ 1µM (footnote *); read-out: RT Assay % inhibition
measurement kind: inhibition at 1 µM

>>> value_measured("C=COC(=O)N1C(=O)c2cccnc2N(C2CC2)c2nccc(C)c21")
"72%"
>>> value_measured("CCN1c2ncccc2C(=O)N(C)c2ccc(N(C)C)nc21")
"90%"
>>> value_measured("CCN1c2ncccc2C(=O)N(C)c2cc(Cl)c([N+](=O)[O-])nc21")
"40%"
>>> value_measured("CON1C(=O)c2cccnc2N(C2CC2)c2nccc(C)c21")
"17%"
>>> value_measured("O=C1Nc2cccnc2N(C2CCCCC2)c2ncccc21")
"35%"
